# tested_on: binding partner of C5A (XPA23)
# test_details: Biacore
quantity: fold difference in affinity vs original (fold)
Write the answer as a number in fold, unit excluded.

INSERT INTO assay_data (binder, quantity, unit_tag, observed_result) VALUES
  ('C5A (XPA23) VH G103V (antibody, V domains shown) VH: EVQLLESGGGLVQPGGSLRLSCAASGFTFSKYFMFWVRQAPGKGLEWVSVISPSGGMTRYADSVKGRFTISRDNSKNTLYLQMNSLRAEDTAVYYCARVGYGVNSDYWGQGTLVTVSS VL: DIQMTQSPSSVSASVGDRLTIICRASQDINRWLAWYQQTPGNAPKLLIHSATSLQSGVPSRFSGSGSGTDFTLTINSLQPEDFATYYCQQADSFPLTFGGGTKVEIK', 'fold difference in affinity vs original', 'fold', 2.56),
  ('C5A (XPA23) VH G56P (antibody, V domains shown) VH: EVQLLESGGGLVQPGGSLRLSCAASGFTFSKYFMFWVRQAPGKGLEWVSVISPSGPMTRYADSVKGRFTISRDNSKNTLYLQMNSLRAEDTAVYYCARVGYGGNSDYWGQGTLVTVSS VL: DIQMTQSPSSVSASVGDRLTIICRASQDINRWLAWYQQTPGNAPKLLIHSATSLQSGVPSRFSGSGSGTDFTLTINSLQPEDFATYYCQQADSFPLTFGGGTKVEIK', 'fold difference in affinity vs original', 'fold', 0.85);

Shifting focus to the binder that follows.
Fill in the blank: the reported fold difference in affinity vs original of C5A (XPA23) VH P53V (antibody, V domains shown) VH: EVQLLESGGGLVQPGGSLRLSCAASGFTFSKYFMFWVRQAPGKGLEWVSVISVSGGMTRYADSVKGRFTISRDNSKNTLYLQMNSLRAEDTAVYYCARVGYGGNSDYWGQGTLVTVSS VL: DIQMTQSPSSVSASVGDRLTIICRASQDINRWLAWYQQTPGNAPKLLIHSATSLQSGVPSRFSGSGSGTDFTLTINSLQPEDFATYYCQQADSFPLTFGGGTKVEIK is ____.
1.1
